The entries below are paired with their reported Kd.
- Assayed Target: WD repeat-containing protein 5 (Homo sapiens)
Reported Property: Kd (nM)

Record Smiles | Value Modifier | Recorded Measurement
CNC(=O)c1cc(S(F)(F)(F)(F)F)cc(NS(=O)(=O)c2cc(Br)ccc2O)c1O | = | 204
CNC(=O)c1cc(Cl)cc(NS(=O)(=O)c2cc(Br)cc(Cl)c2O)c1O | = | 298
CS(=O)(=O)c1cc(S(F)(F)(F)(F)F)cc(NS(=O)(=O)c2cc(Br)ccc2O)c1O | = | 167
O=C(O)c1cc(OC(F)(F)F)cc(NS(=O)(=O)c2cc(Br)cc(Cl)c2O)c1O | = | 51
CS(=O)(=O)c1cc(Cl)cc(NS(=O)(=O)c2cc(Br)cc(Cl)c2O)c1O | = | 123
COc1ccc(Br)cc1S(=O)(=O)Nc1ccccc1O | > | 40000
O=C(O)c1cc(NS(=O)(=O)c2cc(Br)ccc2O)cc(OC(F)(F)F)c1 | = | 194
O=C(O)c1c(O)c(NS(=O)(=O)c2cc(Br)ccc2O)cc(C2CC2)c1F | = | 122
CNC(=O)c1cc(C2(C#N)CCCCC2)cc(NS(=O)(=O)c2cc(Br)ccc2O)c1O | = | 779
O=C(O)c1cc(Cl)cc(NS(=O)(=O)c2cc(Br)ccc2O)c1O | = | 223
